- Protocol Details: Solubility of ingenol-3-angelate in co-solvents
- Format: physicochemical
- Condition Notes: organic solvent or mixture; co-solvent ethyl acetate; read-out: solubility in ethyl acetate
Readout Label: solubility

Q: Returns the measured solubility for the input molecule. Input: C/C=C(/C)C(=O)O[C@H]1C(C)=C[C@]23C(=O)[C@@H](C=C(CO)[C@@H](O)[C@]12O)[C@H]1[C@@H](C[C@H]3C)C1(C)C [ingenol-3-angelate]
A: 102 to 255 mg/mL

* * *

- Protocol Details: Solubility of ingenol-3-angelate in co-solvents
- Type: physicochemical
- Condition Notes: organic solvent or mixture; co-solvent N-methylpyrrolidone; read-out: solubility in N-methylpyrrolidone
Readout Label: solubility

Q: Form field: reported solubility of C/C=C(/C)C(=O)O[C@H]1C(C)=C[C@]23C(=O)[C@@H](C=C(CO)[C@@H](O)[C@]12O)[C@H]1[C@@H](C[C@H]3C)C1(C)C [ingenol-3-angelate]
A: 104 to 260 mg/mL
